Below, each entry is listed with its recorded growth at 10 µM.
system: CCRF-CEM; assay: Growth inhibition of human CCRF-CEM cells assessed as cell growth at 10^-5 M after 48 hrs by sulforhodamine B assay relative to control; format: functional; conditions: read-out: Activity
endpoint: growth at 10 µM (%)

{"columns": ["structure.smiles.string", "endpoint.value"],
 "data": [
  ["N=c1scc(-c2ccc(Cl)cc2)n1CC(=O)N1CCN(c2ccccc2)CC1", 96.2],
  ["N=c1scc(-c2ccccc2)n1CC(=O)N1CCN(c2ccccc2)CC1", 95.8],
  ["CN1CCN(C(=O)Cn2c(-c3ccc(Cl)cc3)csc2=N)CC1", 89.1],
  ["CC(=O)N1CCN(C(=O)Cn2c(-c3ccc(C)cc3)csc2=N)CC1", 88.2],
  ["Cc1ccc(-c2csc(=N)n2CC(=O)N2CCOCC2)cc1", 101],
  ["CC(=O)N1CCN(C(=O)Cn2c(-c3ccc(Cl)cc3)csc2=N)CC1", 92.3],
  ["CC(=O)N1CCN(C(=O)Cn2c(-c3ccccc3)csc2=N)CC1", 103],
  ["N=c1scc(-c2ccc(Cl)cc2)n1CC(=O)N1CCOCC1", 91.3],
  ["Cc1ccc(-c2csc(=N)n2CC(=O)N2CCN(c3ccccc3)CC2)cc1", 103],
  ["N=c1scc(-c2ccccc2)n1CC(=O)N1CCOCC1", 98.6],
  ["CN1CCN(C(=O)Cn2c(-c3ccccc3)csc2=N)CC1", 97.6],
  ["Cc1ccc(-c2csc(=N)n2CC(=O)N2CCN(C)CC2)cc1", 87.1]
]}

---

Data export: Ki values recorded with Epidermal growth factor receptor (Homo sapiens, UniProt P00533).
Sequence (P00533 whole entry): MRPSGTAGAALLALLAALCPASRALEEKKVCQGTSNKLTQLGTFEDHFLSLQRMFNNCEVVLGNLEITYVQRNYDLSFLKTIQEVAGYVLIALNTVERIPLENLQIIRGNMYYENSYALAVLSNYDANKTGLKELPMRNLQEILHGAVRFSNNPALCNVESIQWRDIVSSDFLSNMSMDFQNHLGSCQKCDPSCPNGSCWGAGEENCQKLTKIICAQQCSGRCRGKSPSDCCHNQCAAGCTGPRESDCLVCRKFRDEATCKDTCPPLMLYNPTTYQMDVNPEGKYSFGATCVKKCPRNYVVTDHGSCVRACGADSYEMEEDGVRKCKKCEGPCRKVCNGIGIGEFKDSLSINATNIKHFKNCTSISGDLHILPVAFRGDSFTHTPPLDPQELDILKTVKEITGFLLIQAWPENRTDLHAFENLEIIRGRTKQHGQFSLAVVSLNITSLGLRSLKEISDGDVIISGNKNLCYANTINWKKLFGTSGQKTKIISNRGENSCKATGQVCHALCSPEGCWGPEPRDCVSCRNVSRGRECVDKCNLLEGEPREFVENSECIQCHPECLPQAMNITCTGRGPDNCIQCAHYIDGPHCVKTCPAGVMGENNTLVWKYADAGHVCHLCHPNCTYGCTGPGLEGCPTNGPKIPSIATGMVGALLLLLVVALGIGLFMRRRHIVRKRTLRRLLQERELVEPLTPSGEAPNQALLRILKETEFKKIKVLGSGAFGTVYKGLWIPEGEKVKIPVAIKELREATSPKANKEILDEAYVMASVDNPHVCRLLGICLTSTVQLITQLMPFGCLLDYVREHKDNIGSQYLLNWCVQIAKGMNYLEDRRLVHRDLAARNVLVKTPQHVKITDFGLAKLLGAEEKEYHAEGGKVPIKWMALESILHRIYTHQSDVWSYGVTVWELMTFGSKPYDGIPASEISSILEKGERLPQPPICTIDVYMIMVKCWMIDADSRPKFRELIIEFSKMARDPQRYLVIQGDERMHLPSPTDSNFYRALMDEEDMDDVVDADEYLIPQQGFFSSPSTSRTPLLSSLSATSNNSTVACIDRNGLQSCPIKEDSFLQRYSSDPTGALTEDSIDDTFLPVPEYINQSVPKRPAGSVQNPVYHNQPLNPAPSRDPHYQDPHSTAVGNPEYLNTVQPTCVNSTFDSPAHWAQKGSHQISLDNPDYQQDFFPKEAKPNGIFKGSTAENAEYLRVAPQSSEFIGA

{"columns": ["structure.smiles.string", "Ki (µM)"],
 "data": [
  ["CC(=O)N1CCN(C(=O)Cn2c(-c3ccc(Cl)cc3)csc2=N)CC1", 8.58],
  ["Cc1ccc(-c2csc(=N)n2CC(=O)N2CCN(C)CC2)cc1", 27.4],
  ["Cc1ccc(-c2csc(=N)n2CC(=O)N2CCN(c3ccccc3)CC2)cc1", 2.97],
  ["N=c1scc(-c2ccccc2)n1CC(=O)N1CCN(c2ccccc2)CC1", 4.68],
  ["Cc1ccc(-c2csc(=N)n2CC(=O)N2CCOCC2)cc1", 22.9],
  ["N=c1scc(-c2ccc(Cl)cc2)n1CC(=O)N1CCN(c2ccccc2)CC1", 5.82],
  ["CN1CCN(C(=O)Cn2c(-c3ccc(Cl)cc3)csc2=N)CC1", 15.6],
  ["N=c1scc(-c2ccccc2)n1CC(=O)N1CCOCC1", 55.3],
  ["CC(=O)N1CCN(C(=O)Cn2c(-c3ccc(C)cc3)csc2=N)CC1", 6.09],
  ["CC(=O)N1CCN(C(=O)Cn2c(-c3ccccc3)csc2=N)CC1", 16.8],
  ["CN1CCN(C(=O)Cn2c(-c3ccccc3)csc2=N)CC1", 41.6],
  ["N=c1scc(-c2ccc(Cl)cc2)n1CC(=O)N1CCOCC1", 6.64]
]}

---

Below, each entry is listed with its recorded growth at 10 µM.
system: ACHN; experiment: Growth inhibition of human ACHN cells assessed as cell growth at 10^-5 M after 48 hrs by sulforhodamine B assay relative to control; format: functional; details: read-out: Activity

{"columns": ["structure.smiles.string", "unit.of.measure", "growth at 10 µM"],
 "data": [
  ["N=c1scc(-c2ccccc2)n1CC(=O)N1CCOCC1", "%", 88],
  ["CC(=O)N1CCN(C(=O)Cn2c(-c3ccccc3)csc2=N)CC1", "%", 89.5],
  ["Cc1ccc(-c2csc(=N)n2CC(=O)N2CCN(C)CC2)cc1", "%", 81.2],
  ["CN1CCN(C(=O)Cn2c(-c3ccccc3)csc2=N)CC1", "%", 81.2],
  ["Cc1ccc(-c2csc(=N)n2CC(=O)N2CCOCC2)cc1", "%", 97.5],
  ["CC(=O)N1CCN(C(=O)Cn2c(-c3ccc(Cl)cc3)csc2=N)CC1", "%", 90.7],
  ["N=c1scc(-c2ccc(Cl)cc2)n1CC(=O)N1CCOCC1", "%", 99.4],
  ["CN1CCN(C(=O)Cn2c(-c3ccc(Cl)cc3)csc2=N)CC1", "%", 98.6],
  ["CC(=O)N1CCN(C(=O)Cn2c(-c3ccc(C)cc3)csc2=N)CC1", "%", 92.8],
  ["N=c1scc(-c2ccc(Cl)cc2)n1CC(=O)N1CCN(c2ccccc2)CC1", "%", 96.1],
  ["Cc1ccc(-c2csc(=N)n2CC(=O)N2CCN(c3ccccc3)CC2)cc1", "%", 81.2],
  ["N=c1scc(-c2ccccc2)n1CC(=O)N1CCN(c2ccccc2)CC1", "%", 83.4]
]}

FYI, the data here is from ChEMBL document CHEMBL2434944.
